The reported measurements were obtained from patent US7943628B2.

molecular target: histamine H4 receptor (Homo sapiens, UniProt Q9H3N8); construct: expressed in transfected cells; host or cells: CHO cells; test: H4 binding, method 2 ([3H]-histamine binding with Ysi WGA beads on CHO cell membranes); conditions: Method 2 (Ki (nM)), H4 binding, method 2; Ki calculated from IC50 (Cheng-Prussoff)
Sequence (Q9H3N8 whole entry): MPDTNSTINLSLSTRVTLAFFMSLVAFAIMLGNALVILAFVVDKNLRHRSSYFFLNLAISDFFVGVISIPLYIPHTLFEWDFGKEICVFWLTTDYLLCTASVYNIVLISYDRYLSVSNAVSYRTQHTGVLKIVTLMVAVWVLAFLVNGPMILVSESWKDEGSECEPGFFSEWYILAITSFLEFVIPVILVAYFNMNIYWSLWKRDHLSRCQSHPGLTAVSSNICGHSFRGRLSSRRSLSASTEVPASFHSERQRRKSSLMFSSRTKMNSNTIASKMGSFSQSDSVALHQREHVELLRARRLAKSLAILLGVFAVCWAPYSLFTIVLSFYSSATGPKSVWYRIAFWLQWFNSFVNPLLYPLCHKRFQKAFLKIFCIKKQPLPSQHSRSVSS
Threshold check on Ki: strictly below 20 nM is 1 (yes); on or above 20 nM is 0 (no).

• CN1CCN(c2cc(NCC3CC3)nc(N)n2)CC1 [Example 122] = 1 (yes)
• Nc1nc(NC2CCC2)cc(N2C[C@H]3CCCN[C@H]3C2)n1 (racemic) [Example 32] = 0 (no)
• CC(C)CCNc1cc(N2C[C@H]3CCCN[C@H]3C2)nc(N)n1 (racemic) [Example 29] = 0 (no)
• CC(C)CNc1cc(N2CCN(C)CC2)nc(N)n1 [Example 121] = 1 (yes)

Now look at this entry.
input: Is it true that Ki reported for CC(C)(C)CNc1cc(N2C[C@H]3CCCN[C@H]3C2)ncn1 (racemic) [Example 127] is less than 20 nM?
output: 0 (no)

---

target: histamine H4 receptor (Homo sapiens, UniProt Q9H3N8); construct: expressed in transfected cells; host or cells: CHO cells; assay: H4 binding, method 2 ([3H]-histamine binding with Ysi WGA beads on CHO cell membranes); settings: Method 2 (Ki (nM)), H4 binding, method 2; Ki calculated from IC50 (Cheng-Prussoff)
Param label: returns yes when Ki < 20 nM, returns no otherwise, including exact equality.

// known answers, use as guide
• CC(C)CNc1cc(N2C[C@H]3CCCN[C@H]3C2)nc(N)n1 (racemic) = no
• Nc1nc(NCC2CCCC2)cc(N2C[C@H]3CCCN[C@H]3C2)n1 (racemic) = no
• CCNc1cc(N2CCN[C@H](C)C2)nc(N)n1 = no
• CCNc1cc(N2CCN(C)CC2)nc(N)n1 = yes
• Nc1nc(NC2CC2)cc(N2C[C@H]3CCCN[C@H]3C2)n1 (racemic) = no

input: Problem: For the compound CC(C)(C)CNc1cc(N2C[C@H]3CCCN[C@H]3C2)nc(N)n1 (racemic) , is Ki under 20 nM?
output: yes

input: Does the reported Ki of the following compound sit strictly below 20 nM? CC(C)Nc1cc(N2C[C@H]3CCCN[C@H]3C2)nc(N)n1 (racemic)
output: no

input: Determine if CCNc1cc(N2C[C@H]3CCCN[C@H]3C2)nc(N)n1 (racemic) shows Ki strictly lower than 20 nM.
output: no

input: Input "CC(C)Nc1cc(N2CCN(C)CC2)nc(N)n1" ; condition: Ki strictly below 20 nM. Does it hold?
output: yes

---

Target: histamine H4 receptor (Homo sapiens)
Construct: expressed in transfected cells; host or cells: CHO cells
Test: H4 binding, method 2 ([3H]-histamine binding with Ysi WGA beads on CHO cell membranes)
Settings: H4 binding, method 2; Ki calculated from IC50 (Cheng-Prussoff); read-out: Method 2 (Ki (nM))
Method: Cell pellets from CHO cells expressing the histamine H4 receptor were homogenised in ice-cold 50 mM Tris-HCl/0.5 mM CaCl2 buffer containing a protease inhibitor cocktail (Roche®, United Kingdom) using a ground glass homogeniser. Homogenates were centrifuged at 48000 g for 30 min at 4° C. The membrane pellet was resuspended in fresh buffer and the centrifugation step was repeated as described above. The membrane pellet was resuspended in 50 mM Tris-HCl in the same volume as the original cell pellet. […]
log10 Ki for assorted molecules
Form field - Quantity: Ki; Unit: nM; Scale: log10

• CC(C)CCNc1cc(N[C@@H]2CCNC2)ncn1 [Example 329] = 3.15
• C[C@H]1CN(c2cc(NCCC(C)(C)C)nc(N)n2)CCN1 [Example 94] = 1.79
• CCNc1cc(N2CC(NC)C2)ncn1 [Example 48] = 1.70
• CNC1CN(c2cc(NCc3ccc(F)cc3)nc(N)n2)C1 [Example 90] = 0.81
• CNC1CN(c2cc(NCCC(C)(C)C)nc(N)n2)C1 [Example 64] = 0.65
• CNC1CN(c2cc(NCc3ccccc3C)nc(N)n2)C1 [Example 82] = 0.99
• CC(C)CCNc1cc(N2C[C@H]3CN(C)C[C@H]3C2)nc(N)n1 [Example 41] = 2.31
• C[C@@H]1CN(c2cc(NCC(C)(C)C)nc(N)n2)CCN1 [Example 95] = 0.96

input: So what log10 Ki did CN1C[C@@H]2CN(c3cc(NCc4cccc(F)c4)nc(N)n3)C[C@@H]2C1 [Example 92] get with histamine H4 receptor (Homo sapiens)?
output: 3.13

input: Short answer please: log10 Ki, histamine H4 receptor (Homo sapiens), entry Cc1c(NC(C)C)ncnc1N1CCN(C)CC1 [Example 331]
output: 3.43

---

Target: histamine H4 receptor (Homo sapiens)
Construct: expressed in transfected cells; host or cells: CHO cells
Assay: H4 binding, method 1 ([3H]-histamine filtration binding on CHO cell membranes)
Conditions: H4 binding, method 1; Ki calculated from IC50 (Cheng-Prussoff)
Method: Cell pellets from CHO cells expressing the histamine H4 receptor were homogenised in ice-cold 50 mM Tris-HCl/0.5 mM CaCl2 buffer containing a protease inhibitor cocktail (Roche®, United Kingdom) using a ground glass homogeniser. Homogenates were centrifuged at 48000 g for 30 min at 4° C. The membrane pellet was resuspended in fresh buffer and the centrifugation step was repeated as described above. The membrane pellet was resuspended in 50 mM Tris-HCl in the same volume as the original cell pellet. […]
valueType: Ki (nM)
Please respond with the number in nM and leave the unit unwritten.

Here are 8 molecules together with their reported answers.
- CN[C@@H]1CCN(c2cc(NC3CCC3)ncn2)C1 [Example 181]: 17.6
- CN1C[C@@H]2C[C@H]1CN2c1cc(NCCC(C)(C)C)ncn1 [Example 5]: 263
- NCCNc1cc(NCC2CC2)ncn1 [Example 220]: 88
- C[C@@H]1CN(c2cc(NCc3cccc(F)c3)nc(N)n2)CCN1 [Example 267]: 715
- CC(C)CNc1cc(N2CCC(N)CC2)nc(N)n1 [Example 229]: 127
- CN[C@@H]1CCN(c2cc(NCc3ccc(F)cc3)nc(N)n2)C1 [Example 155]: 1.78
- C[C@H]1CN(c2cc(NCc3ccccc3)nc(N)n2)CCN1 [Example 251]: 355
- CC(C)CNc1cc(N2CCCNCC2)nc(N)n1 [Example 133]: 0.653

input: Data request, read-out Ki, for CCNc1cc(N2CCN(C)CC2)ncn1 [Example 103]
output: 87.9

input: Need Ki, item CCNc1cc(N2CCCNCC2)nc(N)n1 [Example 175]
output: 12.3

input: # query: Ki of entry CN[C@@H]1CCN(c2cc(NCC3CCC3)nc(N)n2)C1 [Example 243]
output: 266

---

molecular target: histamine H4 receptor (Homo sapiens, UniProt Q9H3N8); construct: expressed in transfected cells; host or cells: CHO cells; assay: H4 binding, method 2 ([3H]-histamine binding with Ysi WGA beads on CHO cell membranes); settings: at 40 μM
Given measured Method 2, % at 40 μM, output met if it is greater than or equal to 50 % at 40 μM and not met if not.

Take a look at these entries with their results.
• CC(C)(C)CCNc1cc(N2CC[C@H](N3CCCC3)C2)ncn1 [Example 342] = not met
• CN1CCC(Nc2cc(NCCC(C)(C)C)ncn2)CC1 [Example 343] = met

As a next step, examine the compound that follows.
input: Would you say COCCNc1cc(N[C@H]2CCNC2)ncn1 [Example 344] shows Method 2, % at 40 μM at minimum 50 % at 40 μM?
output: not met

---

Below is a list of entries, each paired with its recorded log10(Ki) value.
molecular target: histamine H4 receptor (Homo sapiens, UniProt Q9H3N8); construct: expressed in transfected cells; host or cells: CHO cells; assay: H4 binding, method 1 ([3H]-histamine filtration binding on CHO cell membranes); settings: H4 binding, method 1; Ki calculated from IC50 (Cheng-Prussoff)
Would you kindly interpret these values as log10 of Ki expressed in nM?

input: Param item = "CCCNc1cc(N2CCN[C@@H](C)C2)ncn1" ; retrieve measured log10(Ki).
output: 2.71

input: What does the data say about its log10(Ki)? Entry: "Nc1nc(NCC2CCCC2)cc(N2CC[C@@H](N)C2)n1"
output: 1.91

---

Listed compounds paired with reported Ki
target: histamine H4 receptor (Homo sapiens); construct: expressed in transfected cells; host or cells: CHO cells; test: H4 binding, method 2 ([3H]-histamine binding with Ysi WGA beads on CHO cell membranes); conditions: H4 binding, method 2; Ki calculated from IC50 (Cheng-Prussoff); read-out: Method 2 (Ki (nM))

• CN1CCN(c2cc(NC[C@H]3CCCO3)ncn2)CC1 = 1480 nM
• CNC1CN(c2cc(NCc3ccccc3Cl)nc(N)n2)C1 = 1.93 nM
• C[C@@H]1CN(c2cc(NCCC(C)(C)C)nc(N)n2)CCN1 = 256 nM

input: State the recorded Ki for this entry: "CNC1CN(c2cc(NCc3ccccc3Cl)ncn2)C1"
output: 99.7 nM

input: Please give the measured Ki for this compound: "CN1CCN(c2cc(NCCC(F)(F)F)ncn2)CC1"
output: 494 nM
